The reported numbers originate from patent US20230096766A1.

protocol.details: Membrane permeability test of cyclic peptides (Caco-2, modified/improved method of WO 2018/124162)
condition.context: human, Caco-2, Caco-2 (membrane permeability), Table 6, cyclic peptides containing Ser(1-CF3-EtOH) (C) or Hnl(7-F3-6-OH) (D)
*1 amine or outer side, *2 acyl side, *3 side chain or, on linkers, in order; H or OH if unused. Where a SMILES comes first, the peptide text is derived from it. Bridges are numbered along the chain shown (N, C = ends). [ ]: non-standard residue; d: D form. The star is where a group is joined. ξ: configuration not given here. NMeF = CN[C@@H](Cc1ccccc1)C(=O)O; NMeGABA = CN(CCCC(=O)[*:2])[*:1]; CH2CH(OH)CF3 = OC(C*)C(F)(F)F; NMeL = CN[C@@H](CC(C)C)C(=O)O; NMeAbu = CC[C@H](NC)C(=O)O; Piperidide = C1CCN(*)CC1; ξV = CC(C)C(N)C(=O)O; Sar = CNCC(=O)O; tBu = CC(C)(C)*
readout.label: Papp (×10⁻⁶ cm/s)
State just the number; it will be interpreted in ×10⁻⁶ cm/s.

Papp for CC(C)C[C@H]1C(=O)N[C@@H](COC(C)(C)C)C(=O)N(C)[C@@H](Cc2ccccc2)C(=O)N(C)[C@@H](CC(C)C)C(=O)N[C@H](C(=O)N2CCCCC2)CC(=O)N[C@H](C(C)C)C(=O)N(C)[C@@H](Cc2ccccc2)C(=O)N[C@@H](COCC(O)C(F)(F)F)C(=O)N(C)[C@@H](CC(C)C)C(=O)NC(C(C)C)C(=O)N(C)CC(=O)N1C (stereo partly drawn) [Compound C11] ([dV][NMeF]S(CH2CH(OH)CF3)[NMeL][ξV][Sar][NMeL]S(tBu)[NMeF][NMeL]D-Piperidide; lactam N-11) is 0.23

Papp for CC[C@H](C)[C@@H]1NC(=O)[C@H](CC(C)C)N(C)C(=O)[C@H](COC(C)(C)C)NC(=O)[C@H](Cc2ccccc2)N(C)C(=O)[C@H](Cc2ccccc2)N(C)C(=O)[C@H](COCC(O)C(F)(F)F)NC(=O)[C@H](CC)N(C)C(=O)CCCN(C)C(=O)C[C@@H](C(=O)N2CCCCC2)NC(=O)[C@H](CC(C)C)N(C)C(=O)[C@H](CC(C)C)N(C)C1=O (stereo partly drawn) [Compound C13] ([NMeGABA][NMeAbu]S(CH2CH(OH)CF3)[NMeF][NMeF]S(tBu)[NMeL]I[NMeL][NMeL]D-Piperidide; lactam N-11) is 0.26

====

protocol.details: in vitro
condition.context: human, Caco-2, Caco-2 (cm/sec)
*1 amine or outer side, *2 acyl side, *3 side chain or, on linkers, in order; H or OH if unused. Where a SMILES comes first, the peptide text is derived from it. Bridges are numbered along the chain shown (N, C = ends). [ ]: non-standard residue; d: D form. The star is where a group is joined. hPhe(3-OMe,4-CONHMe) = CNC(=O)c1ccc(CC[C@H](N)C(=O)O)cc1OC; Propyl(2,2-Me2,3-OH) = CC(C)(CO)C*; NMeF = CN[C@@H](Cc1ccccc1)C(=O)O; NMeGABA = CN(CCCC(=O)[*:2])[*:1]; NMeL = CN[C@@H](CC(C)C)C(=O)O; Piperidide = C1CCN(*)CC1
Provide the reported Papp of each item.
State just the number; it will be interpreted in ×10⁻⁶ cm/s.

Papp for CC[C@H](C)[C@@H]1NC(=O)[C@H](CC(C)C)N(C)C(=O)CCCN(C)C(=O)C[C@@H](C(=O)N2CCCCC2)NC(=O)[C@H](CC(C)C)N(C)C(=O)[C@H](CC(C)C)N(C)C(=O)[C@H]([C@@H](C)O)NC(=O)[C@H](CC(C)C)N(C)C(=O)[C@H](CCc2ccc(C(=O)NC)c(OC)c2)NC(=O)[C@H](CC(C)C)N(C)C(=O)[C@H](Cc2ccccc2)N(C)C1=O [AP202] ([NMeGABA][NMeL]I[NMeF][NMeL][hPhe(3-OMe,4-CONHMe)][NMeL]T[NMeL][NMeL]D-Piperidide; lactam N-11) is 0.18

Papp for CC[C@H](C)[C@@H]1NC(=O)[C@H](CC(C)C)N(C)C(=O)CCCN(C)C(=O)C[C@@H](C(=O)N2CCCCC2)NC(=O)[C@H](CC(C)C)N(C)C(=O)[C@H](CC(C)C)N(C)C(=O)[C@H]([C@@H](C)O)NC(=O)[C@H](CC(C)C)N(C)C(=O)[C@H](COCC(C)(C)CO)NC(=O)[C@H](Cc2ccccc2)N(C)C(=O)[C@H](Cc2ccccc2)N(C)C1=O [AP120] ([NMeGABA][NMeL]I[NMeF][NMeF]S(Propyl(2,2-Me2,3-OH))[NMeL]T[NMeL][NMeL]D-Piperidide; lactam N-11) is 1.1
